B1: TSN (parent)
chain: FVELQGFLAAEQDIREEIRKVVQS

Variants of: B1
Experiment: protein stability index of a GFP-peptide fusion (GPS, HEK-293T) (PSI 1-6); higher = more stable;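 note: lentivirally expressed fusions sorted by FACS into six bins by GFP to DsRed ratio, PSI derived from sequencing read proportions per bin multiplied by bin number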
Details: c terminus: a fixed tail appended
fulfilled means recorded protein stability index is 2 or above; not fulfilled means it is below 2.

Please review the entries below; each comes with its answer.
(Q) Confirm if protein stability index reported for the variant V21M is 2 or above.
(A) not fulfilled

(Q) I'd appreciate it if you could say whether V21N has protein stability index at least equal to 2.
(A) fulfilled

(Q) Dear colleague, could you confirm whether L8G has protein stability index at or above 2?
(A) not fulfilled

(Q) Decide: is the reported value of protein stability index for Q5A equal to or greater than 2?
(A) not fulfilled

(Q) Could you verify whether the entry F1N shows protein stability index of no less than 2?
(A) fulfilled

New cases:
(Q) Can V2F be said to have protein stability index at or above 2?
(A) not fulfilled

(Q) Dear colleague, could you confirm whether V22F has protein stability index at or above 2?
(A) fulfilled
